The values you see were collected from ChEMBL document CHEMBL1201862.

- Test system: U-251
- experiment: NCI tumour cell line growth inhibition, 48 h
Activity calls are given as the source filed them. Cut-off read from the data, not from the text of the source: active = GI50 up to about 1.1 µM and inactive = higher.
Respond using exactly one of the listed classes: label 1 (active), label 0 (inactive)

// known answers, use as guide
INSERT INTO measurements (compound, target_entity, assigned_class) VALUES
  ('O=C(c1ccccc1)c1nc2ccc(Cl)cc2c2c1Cc1ccccc1-2', 'U-251', 'label 0'),
  ('COc1cccc(-c2cc(O)c3cc(C)cnc3n2)c1', 'U-251', 'label 1'),
  ('CN(C)CC1CN(C(=O)Nc2ccccc2)C(=N)O1 (stereo unspecified)', 'U-251', 'label 0'),
  ('CC1=C/C(=N\N(C)C)C(C(O)(C(F)(F)F)C(F)(F)F)C(C)(C)C1 (stereo unspecified)', 'U-251', 'label 0'),
  ('COc1ccc(C2=C(N)c3c(OC)cccc3C2=O)cc1', 'U-251', 'label 0');

Query compound follows.
**Q:** I would be grateful if you could indicate the recorded call for COc1ccc(/C=C\c2cc(OC)c(OC(C)=O)c(OC)c2)cc1 .
**A:** label 0
